- experiment: Calcium salts, physical/chemical attributes in orange juice, 450 mg/100 mL calcium load
- Assay type: physicochemical
- condition_set: 48 hours
readout_name: pH (48 Hours)
Give bare numbers.

Worked examples, 10 compounds total:
compound	quantitative_result
O.O=C([O-])CCC(=O)[O-].[Ca+2] [calcium succinate monohydrate]	4.66
O=C([O-])[O-].[Ca+2] [calcium carbonate]	5.88
O.O.O=P([O-])([O-])O.[Ca+2] [dicalcium phosphate dihydrate]	4.21
O.O.[Ca+2].[Cl-].[Cl-] [calcium chloride dihydrate]	3.84
O=P([O-])([O-])[O-].O=P([O-])([O-])[O-].[Ca+2].[Ca+2].[Ca+2] [tricalcium phosphate]	4.37
N[C@@H](CCC(=O)[O-])C(=O)[O-].O.O.O.O.[Ca+2] [calcium L-glutamate tetrahydrate]	4.47
O=C([O-])CC(O)(CC(=O)[O-])C(=O)[O-].O=C([O-])CC(O)(CC(=O)[O-])C(=O)[O-].[Ca+2].[Ca+2].[Ca+2] [tri-calcium citrate]	4.07
O=P([O-])([O-])[O-].O=P([O-])([O-])[O-].[Ca+2].[Ca+2].[Ca+2] [tricalcium phosphate (fine), tricalcium phosphate]	4.51
O.O.O.O=C([O-])/C=C/C(=O)[O-].[Ca+2] [calcium fumarate trihydrate]	4.01
O.O=P([O-])([O-])OCC(O)CO.[Ca+2] (centres unmarked) [calcium glycerophosphate monohydrate]	4.50

Briefly, pH (48 Hours) measured for O=P([O-])([O-])O.[Ca+2] [dicalcium phosphate anhydrous] : 4.04

---

Task for the reader: assign each of the following molecules its reported Brix (48 hrs).
- experiment: Calcium salts, physical/chemical attributes in orange juice, 350 mg/100 mL calcium load
- Type: physicochemical
- condition_set: 48 hrs
One number for each entry.

Worked examples, 5 molecules total:
molecule	Brix (48 hrs)
O.O.O=C([O-])[C@H](O)[C@@H](O)C(=O)[O-].[Ca+2] [calcium L-tartrate dihydrate]	11.99
CC(O)C(=O)[O-].CC(O)C(=O)[O-].O.O.O.O.O.[Ca+2] (stereo not shown) [calcium lactate pentahydrate]	12.80
O.O=P([O-])(O)O.O=P([O-])(O)O.[Ca+2] [monocalcium phosphate monohydrate]	12.53
O=P([O-])([O-])[O-].O=P([O-])([O-])[O-].[Ca+2].[Ca+2].[Ca+2] [tricalcium phosphate (fine), tricalcium phosphate]	12.27
O=C([O-])CC(O)(CC(=O)[O-])C(=O)[O-].O=C([O-])CC(O)(CC(=O)[O-])C(=O)[O-].[Ca+2].[Ca+2].[Ca+2] [tri-calcium citrate]	12.37

Report Brix (48 hrs) for every entry below.
1. O=C([O-])CC(O)C(=O)[O-].[Ca+2] (stereo not shown) [calcium malate]
2. O.O.O.O=C([O-])/C=C/C(=O)[O-].[Ca+2] [calcium fumarate trihydrate]
3. O.O.O=P([O-])([O-])O.[Ca+2] [dicalcium phosphate dihydrate]
4. N[C@@H](CCC(=O)[O-])C(=O)[O-].O.O.O.O.[Ca+2] [calcium L-glutamate tetrahydrate]
5. O.O=C([O-])CCC(=O)[O-].[Ca+2] [calcium succinate monohydrate]

Ans.
1. 12.54
2. 13.56
3. 12.33
4. 13.41
5. 12.64

Report Brix (48 hrs) for every entry below.
1. O.O=P([O-])([O-])OCC(O)CO.[Ca+2] (stereo not shown) [calcium glycerophosphate monohydrate]
2. O=C([O-])[O-].[Ca+2] [calcium carbonate]
3. O=P([O-])([O-])[O-].O=P([O-])([O-])[O-].[Ca+2].[Ca+2].[Ca+2] [tricalcium phosphate]
4. O=P([O-])([O-])O.[Ca+2] [dicalcium phosphate anhydrous]

Ans.
1: 12.54; 2: 12.35; 3: 12.39; 4: 11.97

Report Brix (48 hrs) for every entry below.
1. O.O.[Ca+2].[Cl-].[Cl-] [calcium chloride dihydrate]
2. O=C[O-].O=C[O-].[Ca+2] [calcium formate]

Ans.
12.54
12.45

Reference source: patent US20070003671A1
